study.system: Pyruvate dehydrogenase kinase (Homo sapiens, UniProt Q15119+Q15120+Q16654+Q15118)
protocol.details: Binding affinity to pyruvate dehydrogenase kinase (unknown origin) by VER-00160364 probe based fluorescence polarization assay
measured.parameter: IC50

[[record]]
compound = "Cc1cnc(NCCN(C)C)nc1-c1ccc2c(c1)CC[C@H](C)N2C(=O)c1ccc(O)cc1O"
experimental_result = "1000 nM"

[[record]]
compound = "Cc1cnc(Cl)nc1-c1ccc2c(c1)CCC(C)N2C(=O)c1ccc(O)cc1O (centres undefined)"
experimental_result = "10 nM"

[[record]]
compound = "CN(Cc1ccccn1)C(=O)c1ccc2c(c1)CCCN2C(=O)c1ccc(O)cc1O"
experimental_result = "1000 nM"

[[record]]
compound = "C[C@H]1CCc2cc(-c3ccc(NC4CC4)nn3)ccc2N1C(=O)c1ccc(O)cc1O"
experimental_result = "1000 nM"

[[record]]
compound = "O=C(c1ccc2c(c1)CCCN2C(=O)c1ccc(O)cc1O)N1CCc2ccccc21"
experimental_result = "100 nM"

[[record]]
compound = "CC1CCc2cc(F)ccc2N1C(=O)c1cc(Cl)c(O)cc1O (centres undefined)"
experimental_result = "100 nM"

[[record]]
compound = "Cc1nccnc1-c1ccc2c(c1)CCC(C)N2C(=O)c1ccc(O)cc1O (centres undefined)"
experimental_result = "100 nM"

[[record]]
compound = "C[C@H]1CCc2cc(-c3cccc(C#N)c3)ccc2N1C(=O)c1ccc(O)cc1O"
experimental_result = "1000 nM"

[[record]]
compound = "C[C@H]1CCc2cc(-c3nc(C(F)(F)F)nc4ccccc34)ccc2N1C(=O)c1ccc(O)cc1O"
experimental_result = "1000 nM"

[[record]]
compound = "CC1CCc2cc(F)ccc2N1C(=O)c1ccc(O)cc1O (centres undefined)"
experimental_result = "100 nM"

[[record]]
compound = "CCOc1ccc2nc(-c3ccc4c(c3)CC[C@H](C)N4C(=O)c3ccc(O)cc3O)c(C)cc2c1"
experimental_result = "1000 nM"

[[record]]
compound = "CC1CCc2cc(C(=O)N(C)Cc3cccnc3)ccc2N1C(=O)c1ccc(O)cc1O (centres undefined)"
experimental_result = "100 nM"

[[record]]
compound = "C[C@@H]1CCc2ccccc2N1C(=O)c1cc(Cl)c(O)cc1O"
experimental_result = "10000 nM"

[[record]]
compound = "C[C@H]1CCc2cc(C(=O)N(C)Cc3ccc4c(ccn4C)c3)ccc2N1C(=O)c1ccc(O)cc1O"
experimental_result = "100 nM"

[[record]]
compound = "C[C@H]1CCc2cc(C(=O)N(C)Cc3cccs3)ccc2N1C(=O)c1ccc(O)cc1O"
experimental_result = "10 nM"

[[record]]
compound = "Cc1cc(S(=O)(=O)N2CCCC2)cnc1-c1ccc2c(c1)CC[C@H](C)N2C(=O)c1ccc(O)cc1O"
experimental_result = "100 nM"

[[record]]
compound = "C[C@H]1CCc2cc(-c3nc(Cl)nc4c3COCC4)ccc2N1C(=O)c1ccc(O)cc1O"
experimental_result = "100 nM"

[[record]]
compound = "Cc1ccnnc1-c1ccc2c(c1)CCC(C)N2C(=O)c1ccc(O)cc1O (centres undefined)"
experimental_result = "100 nM"

[[record]]
compound = "C[C@@H]1CCc2cc(F)ccc2N1C(=O)c1cc(Cl)c(O)cc1O"
experimental_result = "10000 nM"

[[record]]
compound = "COc1ccccc1-c1ccc2c(c1)CC[C@H](C)N2C(=O)c1ccc(O)cc1O"
experimental_result = "100 nM"

[[record]]
compound = "Cc1nc(N)ccc1-c1ccc2c(c1)CC[C@H](C)N2C(=O)c1ccc(O)cc1O"
experimental_result = "100 nM"

[[record]]
compound = "C[C@H]1CCc2cc(C(=O)N(C)CC(F)(F)F)ccc2N1C(=O)c1ccc(O)cc1O"
experimental_result = "100 nM"

[[record]]
compound = "Cc1ccc[n+]([O-])c1-c1ccc2c(c1)CC[C@H](C)N2C(=O)c1ccc(O)cc1O"
experimental_result = "100 nM"

[[record]]
compound = "C[C@H]1CCc2cc(F)ccc2N1C(=O)c1cc(Cl)c(O)cc1O"
experimental_result = "100 nM"

[[record]]
compound = "Cc1nc(C)c(-c2ccc3c(c2)CCC(C)N3C(=O)c2ccc(O)cc2O)s1 (centres undefined)"
experimental_result = "10 nM"

[[record]]
compound = "CC(=O)Nc1ccc(-c2ccc3c(c2)CC[C@H](C)N3C(=O)c2ccc(O)cc2O)c(C)c1"
experimental_result = "100 nM"

[[record]]
compound = "CCOC(=O)c1nc(C)nc(-c2ccc3c(c2)CC[C@H](C)N3C(=O)c2ccc(O)cc2O)c1C"
experimental_result = "1000 nM"

[[record]]
compound = "C[C@H]1CCc2cc(-c3ccc(-c4ccccc4)cn3)ccc2N1C(=O)c1ccc(O)cc1O"
experimental_result = "10000 nM"

[[record]]
compound = "Cc1cnc(Cl)nc1-c1ccc2c(c1)CC[C@H](C)N2C(=O)c1cc(F)c(O)cc1O"
experimental_result = "10 nM"

[[record]]
compound = "C[C@H]1CCc2cc(C(=O)N(C)Cc3ccnc4ccccc34)ccc2N1C(=O)c1ccc(O)cc1O"
experimental_result = "10 nM"

[[record]]
compound = "Cc1c(Cl)nc(Cl)nc1-c1ccc2c(c1)CC[C@H](C)N2C(=O)c1ccc(O)cc1O"
experimental_result = "100 nM"

[[record]]
compound = "C[C@H]1CCc2cc(C(=O)O)ccc2N1C(=O)c1ccc(O)cc1O"
experimental_result = "10000 nM"

[[record]]
compound = "COC(=O)c1ccc2c(c1)CCCN2C(=O)c1ccc(O)cc1O"
experimental_result = "1000 nM"

[[record]]
compound = "CN(CCN)C(=O)c1ccc2c(c1)CCCN2C(=O)c1ccc(O)cc1O"
experimental_result = "1000 nM"

[[record]]
compound = "Cc1cccnc1-c1ccc2c(c1)CCC(C)N2C(=O)c1cc(Cl)c(O)cc1O (centres undefined)"
experimental_result = "100 nM"

[[record]]
compound = "CC1CCc2cc(C(=O)N(C)Cc3cc4ccccc4[nH]3)ccc2N1C(=O)c1ccc(O)cc1O (centres undefined)"
experimental_result = "100 nM"

[[record]]
compound = "Cc1cn(-c2ccc(-c3ccc4c(c3)CC[C@H](C)N4C(=O)c3ccc(O)cc3O)nn2)cn1"
experimental_result = "100 nM"

[[record]]
compound = "CS(=O)(=O)NCC1CCc2ccccc2N1C(=O)c1ccc(O)cc1O (centres undefined)"
experimental_result = "100 nM"

[[record]]
compound = "Cc1cc(S(=O)(=O)NCCN(C)C)cnc1-c1ccc2c(c1)CC[C@H](C)N2C(=O)c1ccc(O)cc1O"
experimental_result = "10 nM"


---

study.system: Pyruvate dehydrogenase kinase (Homo sapiens, UniProt Q15119+Q15120+Q16654+Q15118)
protocol.details: Binding affinity to pyruvate dehydrogenase kinase (unknown origin) by VER-00160364 probe based fluorescence polarization assay
measured.parameter: IC50

[[record]]
compound = "Cc1cnc(NC(C)C)nc1-c1ccc2c(c1)CC[C@H](C)N2C(=O)c1ccc(O)cc1O"
study_system = "Pyruvate dehydrogenase kinase (Homo sapiens, UniProt Q15119+Q15120+Q16654+Q15118)"
experimental_result = "100 nM"

[[record]]
compound = "C[C@H]1CCc2cc(-c3ccc(-c4ccccc4Cl)cn3)ccc2N1C(=O)c1ccc(O)cc1O"
study_system = "Pyruvate dehydrogenase kinase (Homo sapiens, UniProt Q15119+Q15120+Q16654+Q15118)"
experimental_result = "10000 nM"

[[record]]
compound = "C[C@H]1CCc2cc(-c3ccc(OCCN4CCCC4)nn3)ccc2N1C(=O)c1ccc(O)cc1O"
study_system = "Pyruvate dehydrogenase kinase (Homo sapiens, UniProt Q15119+Q15120+Q16654+Q15118)"
experimental_result = "1000 nM"

[[record]]
compound = "Cc1nc(NS(C)(=O)=O)ccc1-c1ccc2c(c1)CC[C@H](C)N2C(=O)c1ccc(O)cc1O"
study_system = "Pyruvate dehydrogenase kinase (Homo sapiens, UniProt Q15119+Q15120+Q16654+Q15118)"
experimental_result = "100 nM"

[[record]]
compound = "O=C(O)c1ccc2c(c1)CCCN2C(=O)c1ccc(O)cc1O"
study_system = "Pyruvate dehydrogenase kinase (Homo sapiens, UniProt Q15119+Q15120+Q16654+Q15118)"
experimental_result = "10000 nM"

[[record]]
compound = "COc1ccc(-c2ccc3c(c2)CC[C@H](C)N3C(=O)c2ccc(O)cc2O)c(Cl)c1"
study_system = "Pyruvate dehydrogenase kinase (Homo sapiens, UniProt Q15119+Q15120+Q16654+Q15118)"
experimental_result = "1000 nM"

[[record]]
compound = "O=C(c1ccc2c(c1)CCCN2C(=O)c1ccc(O)cc1O)N1CCCCC1"
study_system = "Pyruvate dehydrogenase kinase (Homo sapiens, UniProt Q15119+Q15120+Q16654+Q15118)"
experimental_result = "100 nM"

[[record]]
compound = "O=C(c1ccc(O)cc1O)N1c2ccccc2CCC1c1cccnc1 (centres undefined)"
study_system = "Pyruvate dehydrogenase kinase (Homo sapiens, UniProt Q15119+Q15120+Q16654+Q15118)"
experimental_result = "100 nM"

[[record]]
compound = "CC1CCc2cc(Br)ccc2N1C(=O)c1ccc(O)cc1O (centres undefined)"
study_system = "Pyruvate dehydrogenase kinase (Homo sapiens, UniProt Q15119+Q15120+Q16654+Q15118)"
experimental_result = "1000 nM"

[[record]]
compound = "COc1cnc(Cl)nc1-c1ccc2c(c1)CC[C@H](C)N2C(=O)c1ccc(O)cc1O"
study_system = "Pyruvate dehydrogenase kinase (Homo sapiens, UniProt Q15119+Q15120+Q16654+Q15118)"
experimental_result = "100 nM"

[[record]]
compound = "C[C@H]1CCc2cc(-c3nc(Cl)nc4[nH]ccc34)ccc2N1C(=O)c1ccc(O)cc1O"
study_system = "Pyruvate dehydrogenase kinase (Homo sapiens, UniProt Q15119+Q15120+Q16654+Q15118)"
experimental_result = "1000 nM"

[[record]]
compound = "O=C(c1ccc(O)cc1O)N1CCCc2cc(OCc3ccccc3)ccc21"
study_system = "Pyruvate dehydrogenase kinase (Homo sapiens, UniProt Q15119+Q15120+Q16654+Q15118)"
experimental_result = "10000 nM"

[[record]]
compound = "CC1CCc2cc(C(=O)N3Cc4ccccc4C3)ccc2N1C(=O)c1ccc(O)cc1O (centres undefined)"
study_system = "Pyruvate dehydrogenase kinase (Homo sapiens, UniProt Q15119+Q15120+Q16654+Q15118)"
experimental_result = "100 nM"

[[record]]
compound = "C[C@H]1CCc2cc(-c3ncccc3CO)ccc2N1C(=O)c1ccc(O)cc1O"
study_system = "Pyruvate dehydrogenase kinase (Homo sapiens, UniProt Q15119+Q15120+Q16654+Q15118)"
experimental_result = "100 nM"

[[record]]
compound = "Cc1cc(S(=O)(=O)N2CCOCC2)cnc1-c1ccc2c(c1)CCC(c1cccnc1)N2C(=O)c1ccc(O)cc1O (centres undefined)"
study_system = "Pyruvate dehydrogenase kinase (Homo sapiens, UniProt Q15119+Q15120+Q16654+Q15118)"
experimental_result = "10 nM"

[[record]]
compound = "C[C@H]1CCc2cc(C(=O)N(C)Cc3ccc4ccccc4n3)ccc2N1C(=O)c1ccc(O)cc1O"
study_system = "Pyruvate dehydrogenase kinase (Homo sapiens, UniProt Q15119+Q15120+Q16654+Q15118)"
experimental_result = "100 nM"

[[record]]
compound = "Cc1cc(S(=O)(=O)NCc2cccs2)cnc1-c1ccc2c(c1)CC[C@H](C)N2C(=O)c1ccc(O)cc1O"
study_system = "Pyruvate dehydrogenase kinase (Homo sapiens, UniProt Q15119+Q15120+Q16654+Q15118)"
experimental_result = "10 nM"

[[record]]
compound = "CC1CCc2cc(-c3occc3C#N)ccc2N1C(=O)c1ccc(O)cc1O (centres undefined)"
study_system = "Pyruvate dehydrogenase kinase (Homo sapiens, UniProt Q15119+Q15120+Q16654+Q15118)"
experimental_result = "1000 nM"

[[record]]
compound = "CN(CC(=O)O)C(=O)c1ccc2c(c1)CCCN2C(=O)c1ccc(O)cc1O"
study_system = "Pyruvate dehydrogenase kinase (Homo sapiens, UniProt Q15119+Q15120+Q16654+Q15118)"
experimental_result = "1000 nM"

[[record]]
compound = "Cc1cc(S(=O)(=O)N2CCOCC2)cnc1-c1ccc2c(c1)CC[C@H](C)N2C(=O)c1ccc(O)cc1O"
study_system = "Pyruvate dehydrogenase kinase (Homo sapiens, UniProt Q15119+Q15120+Q16654+Q15118)"
experimental_result = "10 nM"

[[record]]
compound = "CCOC(=O)CN(C)C(=O)c1ccc2c(c1)CCCN2C(=O)c1ccc(O)cc1O"
study_system = "Pyruvate dehydrogenase kinase (Homo sapiens, UniProt Q15119+Q15120+Q16654+Q15118)"
experimental_result = "1000 nM"

[[record]]
compound = "Cc1cc2cc(F)ccc2nc1-c1ccc2c(c1)CC[C@H](C)N2C(=O)c1ccc(O)cc1O"
study_system = "Pyruvate dehydrogenase kinase (Homo sapiens, UniProt Q15119+Q15120+Q16654+Q15118)"
experimental_result = "1000 nM"

[[record]]
compound = "C[C@H]1CCc2cc(C(=O)N(C)C)ccc2N1C(=O)c1ccc(O)cc1O"
study_system = "Pyruvate dehydrogenase kinase (Homo sapiens, UniProt Q15119+Q15120+Q16654+Q15118)"
experimental_result = "100 nM"

[[record]]
compound = "C[C@H]1CCc2cc(-c3ccc(-n4ccnc4)nn3)ccc2N1C(=O)c1ccc(O)cc1O"
study_system = "Pyruvate dehydrogenase kinase (Homo sapiens, UniProt Q15119+Q15120+Q16654+Q15118)"
experimental_result = "100 nM"

